Biological target: human BCKDK (Homo sapiens)
Construct: human BCKDK (residues 31-412 of the protein pre-processing); 6xHis (N, cleaved yes); MBP (N, cleaved yes); TEV protease site (ENLYFQG) (N, cleaved yes); made in house; host or cells: BL21(DE3) E. coli, co-expressed with GroEL-GroES
Assay: In Vitro FRET (TR-FRET) BCKDK activity assay, phosphorylation of BCKDHE1α-E2 fusion substrate
Format: biochemical
Details: purified human BCKDK, 15 μM ATP; geometric mean; read-out: In Vitro FRET IC50
Give measured pIC50 for each item. Keep answers brief.
Recall that pIC50 is obtained by taking minus log10 of the concentration measured in molar.

Request: Given the entry O=C(O)c1sc2cc(Cl)sc2c1F [Example 7] , report its measured pIC50.
Result: 6.59

Request: // returns reported pIC50 for input O=C(O)c1sc2cc(Cl)sc2c1Br [Example 15]
Result: 6.08

Request: Which pIC50 is reported for this compound? Cc1c(F)sc2cc(C(=O)O)sc12 [Example 6]
Result: 6.64

Request: If you can, please state the reported pIC50 value of O=C(O)c1sc2cc(Cl)sc2c1C(F)F [Example 11] .
Result: 6.43
